System Tested: Aurora A (Homo sapiens, UniProt O14965)
Construct: N-terminal GST fusion with full length Aurora A (1-403 amino acids)
Sequence (O14965 whole entry, the tested form may be a part): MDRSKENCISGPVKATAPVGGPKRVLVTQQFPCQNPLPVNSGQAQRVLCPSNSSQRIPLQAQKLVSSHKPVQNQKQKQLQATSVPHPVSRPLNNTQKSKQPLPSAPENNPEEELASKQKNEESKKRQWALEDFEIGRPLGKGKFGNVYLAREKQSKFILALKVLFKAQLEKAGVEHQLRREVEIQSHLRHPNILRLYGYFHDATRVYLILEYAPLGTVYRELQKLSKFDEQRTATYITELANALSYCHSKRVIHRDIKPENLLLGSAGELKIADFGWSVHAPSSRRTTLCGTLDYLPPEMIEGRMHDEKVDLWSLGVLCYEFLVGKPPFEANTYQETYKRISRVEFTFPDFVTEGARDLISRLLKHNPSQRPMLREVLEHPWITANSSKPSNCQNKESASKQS
Protocol: Aurora A enzyme assay (Caliper LC3000 mobility shift)
pIC50: −log10 of the molar value.
Observed Property: pIC50

Problem: Specify measured pIC50 for `NC(=O)[C@H]1[C@H]2C[C@H]3[C@H]1Nc1nc(ncc1F)Nc1ccc4c(c1)CN(CC4)C(=O)CS[C@@H]3C2` .
Solution: 7.00 to 9.00

Problem: Specify measured pIC50 for `NC(=O)[C@H]1[C@@H]2C[C@H]3CNS(=O)(=O)Cc4cccc(c4)Nc4ncc(F)c(n4)N[C@@H]1[C@@H]3C2` .
Solution: 7.00 to 9.00

Problem: Specify measured pIC50 for NC(=O)[C@H]1[C@H]2C[C@H]3[C@H]1Nc1nc(ncc1F)Nc1cccc(c1)CC[S+]([O-])[C@@H]3C2 (stereo partly shown) .
Solution: 7.00 to 9.00

Problem: Specify measured pIC50 for `NC(=O)[C@H]1[C@H]2C[C@H]3[C@H]1Nc1nc(ncc1F)Nc1cccc(c1)[C@H](O)CS[C@@H]3C2` .
Solution: 7.00 to 9.00

Problem: Specify measured pIC50 for Fc1cnc2nc1NC1CCCC(C1)OC/C=C/COc1cccc(c1)N2 (stereo not shown) .
Solution: 6.00 to 7.00

Problem: Specify measured pIC50 for `NC(=O)[C@H]1[C@H]2C[C@H]3[C@H]1Nc1nc(ncc1F)Nc1cccc(c1)[C@@H](O)CS[C@@H]3C2` .
Solution: 7.00 to 9.00

Problem: Specify measured pIC50 for CN1CCN(c2ccc3cc2OCCS[C@@H]2C[C@@H]4C[C@H]2[C@@H](Nc2nc(ncc2F)N3)[C@H]4C(N)=O)CC1 [drawing 220] .
Solution: 7.00 to 9.00

Problem: Specify measured pIC50 for `CN1CCN(c2cc3cc(c2)C(=O)NC[C@@H]2C[C@@H]4C[C@H]2[C@@H](Nc2nc(ncc2F)N3)[C@H]4C(N)=O)CC1` .
Solution: 7.00 to 9.00

Problem: Specify measured pIC50 for `NC(=O)[C@H]1[C@H]2C[C@H]3[C@H]1Nc1nc(ncc1F)Nc1cccc(c1)OCCCS[C@@H]3C2` .
Solution: 7.00 to 9.00

Problem: Specify measured pIC50 for `NC(=O)[C@H]1[C@H]2C[C@H]3[C@H]1Nc1nc(ncc1F)Nc1ccc(F)c(c1)CC(=O)N[C@@H]3C2` .
Solution: 7.00 to 9.00

----------
System Tested: Abl(h) (Homo sapiens, UniProt P00519)
Construct: purchased Caliper Life Sciences
Sequence (P00519 whole entry): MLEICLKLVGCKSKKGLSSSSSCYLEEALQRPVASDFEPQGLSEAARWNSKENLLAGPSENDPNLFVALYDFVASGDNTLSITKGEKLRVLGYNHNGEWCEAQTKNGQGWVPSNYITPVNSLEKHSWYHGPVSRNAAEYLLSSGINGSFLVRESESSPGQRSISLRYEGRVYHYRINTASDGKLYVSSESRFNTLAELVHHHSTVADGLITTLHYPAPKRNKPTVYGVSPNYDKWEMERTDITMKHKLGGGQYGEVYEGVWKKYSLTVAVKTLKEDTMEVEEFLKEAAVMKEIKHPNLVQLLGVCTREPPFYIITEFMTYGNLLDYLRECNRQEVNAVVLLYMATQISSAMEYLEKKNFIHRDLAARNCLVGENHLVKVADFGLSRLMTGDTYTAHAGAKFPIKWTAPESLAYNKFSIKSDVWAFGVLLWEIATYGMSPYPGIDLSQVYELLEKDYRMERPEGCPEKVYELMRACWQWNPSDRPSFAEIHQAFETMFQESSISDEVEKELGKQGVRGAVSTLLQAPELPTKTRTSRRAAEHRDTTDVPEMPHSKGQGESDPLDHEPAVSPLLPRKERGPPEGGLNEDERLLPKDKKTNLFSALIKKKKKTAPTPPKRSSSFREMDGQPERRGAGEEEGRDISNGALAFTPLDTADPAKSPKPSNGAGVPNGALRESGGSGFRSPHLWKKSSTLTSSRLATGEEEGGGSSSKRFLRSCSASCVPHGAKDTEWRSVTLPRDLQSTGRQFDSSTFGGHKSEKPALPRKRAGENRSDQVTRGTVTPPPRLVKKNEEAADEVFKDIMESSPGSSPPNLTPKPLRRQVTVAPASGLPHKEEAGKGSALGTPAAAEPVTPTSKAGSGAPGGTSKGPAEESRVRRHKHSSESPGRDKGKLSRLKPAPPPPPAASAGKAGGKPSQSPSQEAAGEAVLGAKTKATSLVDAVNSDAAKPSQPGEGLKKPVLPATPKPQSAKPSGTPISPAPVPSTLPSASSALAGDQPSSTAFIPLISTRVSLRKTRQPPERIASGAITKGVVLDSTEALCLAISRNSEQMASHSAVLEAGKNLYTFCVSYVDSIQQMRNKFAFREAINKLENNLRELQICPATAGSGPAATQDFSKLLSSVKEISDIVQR
Protocol: Other kinases, single-concentration inhibition (Table 3)
Type: biochemical
Test Context: 1 μM
Observed Property: inhibition at 1 µM (%)
A number alone suffices; assume %.

Observe how each entry below is paired with its result.
[[record]]
molecule = "NC(=O)[C@H]1[C@H]2C[C@H]3[C@H]1Nc1nc(ncc1F)Nc1cccc(c1)OCCS[C@@H]3C2"
system_tested = "Abl(h) (Homo sapiens, UniProt P00519)"
value_reported = 79

[[record]]
molecule = "N#Cc1ccc2cc1NC(=O)CS[C@@H]1C[C@@H]3C[C@H]1[C@@H](Nc1nc(ncc1F)N2)[C@H]3C(N)=O"
system_tested = "Abl(h) (Homo sapiens, UniProt P00519)"
value_reported = -1

[[record]]
molecule = "CN1CCN(c2ccc3cc2NC(=O)CS[C@@H]2C[C@@H]4C[C@H]2[C@@H](Nc2nc(ncc2F)N3)[C@H]4C(N)=O)CC1"
system_tested = "Abl(h) (Homo sapiens, UniProt P00519)"
value_reported = -4


Please turn your attention to the following entry.
Problem: Specify measured inhibition at 1 µM for C=C[C@@H]1C[C@@H]2/C=C/COc3cccc(c3)Nc3ncc(F)c(n3)N[C@H]2[C@H]1C(N)=O (single isomer, unassigned) .
Solution: 105

----------
System Tested: ZIPK(h) (Homo sapiens)
Construct: purchased Caliper Life Sciences
Sequence (O43293 whole entry): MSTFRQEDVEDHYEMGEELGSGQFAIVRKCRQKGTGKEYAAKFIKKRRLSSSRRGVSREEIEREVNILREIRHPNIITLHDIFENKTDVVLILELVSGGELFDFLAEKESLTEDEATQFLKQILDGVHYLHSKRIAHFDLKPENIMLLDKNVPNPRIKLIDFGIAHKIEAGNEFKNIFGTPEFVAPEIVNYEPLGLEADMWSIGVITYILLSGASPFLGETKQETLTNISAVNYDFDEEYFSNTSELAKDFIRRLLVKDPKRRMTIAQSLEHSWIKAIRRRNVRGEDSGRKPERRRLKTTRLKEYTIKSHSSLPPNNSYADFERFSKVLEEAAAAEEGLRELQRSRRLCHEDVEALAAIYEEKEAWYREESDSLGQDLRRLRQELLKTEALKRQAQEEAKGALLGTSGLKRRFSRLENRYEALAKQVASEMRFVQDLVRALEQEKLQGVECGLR
Protocol: Other kinases, single-concentration inhibition (Table 3)
Format: biochemical
Test Context: 1 μM
Observed Property: % inhibition ZIPK(h) (%)
A number alone suffices; assume %.

Observe how each entry below is paired with its result.
[[record]]
molecule = "CC[C@@H]1C[C@@H]2/C=C\\COc3cccc(c3)Nc3ncc(F)c(n3)N[C@H]2[C@H]1C(N)=O (single isomer, unassigned)"
value_reported = 112

[[record]]
molecule = "NC(=O)[C@H]1[C@H]2C[C@H]3[C@H]1Nc1nc(ncc1F)Nc1cccc(c1)C(=O)CS[C@@H]3C2"
value_reported = 84

[[record]]
molecule = "NC(=O)[C@H]1[C@H]2C[C@H]3[C@H]1Nc1nc(ncc1F)Nc1cccc(c1)OCCS[C@@H]3C2"
value_reported = 93

[[record]]
molecule = "N#Cc1ccc2cc1NC(=O)CS[C@@H]1C[C@@H]3C[C@H]1[C@@H](Nc1nc(ncc1F)N2)[C@H]3C(N)=O"
value_reported = 106

[[record]]
molecule = "C=C[C@@H]1C[C@@H]2/C=C/COc3cccc(c3)Nc3ncc(F)c(n3)N[C@H]2[C@H]1C(N)=O (single isomer, unassigned)"
value_reported = 118


Please turn your attention to the following entry.
Problem: Specify measured % inhibition ZIPK(h) for `NC(=O)[C@H]1[C@H]2C[C@H]3[C@H]1Nc1nc(ncc1F)Nc1cccc(c1)NC(=O)CS[C@@H]3C2` .
Solution: 97

----------
System Tested: Tie2(R849W)(h) (Homo sapiens, UniProt Q02763, R849W)
Construct: purchased Caliper Life Sciences
Sequence (Q02763 23-1124 R849W): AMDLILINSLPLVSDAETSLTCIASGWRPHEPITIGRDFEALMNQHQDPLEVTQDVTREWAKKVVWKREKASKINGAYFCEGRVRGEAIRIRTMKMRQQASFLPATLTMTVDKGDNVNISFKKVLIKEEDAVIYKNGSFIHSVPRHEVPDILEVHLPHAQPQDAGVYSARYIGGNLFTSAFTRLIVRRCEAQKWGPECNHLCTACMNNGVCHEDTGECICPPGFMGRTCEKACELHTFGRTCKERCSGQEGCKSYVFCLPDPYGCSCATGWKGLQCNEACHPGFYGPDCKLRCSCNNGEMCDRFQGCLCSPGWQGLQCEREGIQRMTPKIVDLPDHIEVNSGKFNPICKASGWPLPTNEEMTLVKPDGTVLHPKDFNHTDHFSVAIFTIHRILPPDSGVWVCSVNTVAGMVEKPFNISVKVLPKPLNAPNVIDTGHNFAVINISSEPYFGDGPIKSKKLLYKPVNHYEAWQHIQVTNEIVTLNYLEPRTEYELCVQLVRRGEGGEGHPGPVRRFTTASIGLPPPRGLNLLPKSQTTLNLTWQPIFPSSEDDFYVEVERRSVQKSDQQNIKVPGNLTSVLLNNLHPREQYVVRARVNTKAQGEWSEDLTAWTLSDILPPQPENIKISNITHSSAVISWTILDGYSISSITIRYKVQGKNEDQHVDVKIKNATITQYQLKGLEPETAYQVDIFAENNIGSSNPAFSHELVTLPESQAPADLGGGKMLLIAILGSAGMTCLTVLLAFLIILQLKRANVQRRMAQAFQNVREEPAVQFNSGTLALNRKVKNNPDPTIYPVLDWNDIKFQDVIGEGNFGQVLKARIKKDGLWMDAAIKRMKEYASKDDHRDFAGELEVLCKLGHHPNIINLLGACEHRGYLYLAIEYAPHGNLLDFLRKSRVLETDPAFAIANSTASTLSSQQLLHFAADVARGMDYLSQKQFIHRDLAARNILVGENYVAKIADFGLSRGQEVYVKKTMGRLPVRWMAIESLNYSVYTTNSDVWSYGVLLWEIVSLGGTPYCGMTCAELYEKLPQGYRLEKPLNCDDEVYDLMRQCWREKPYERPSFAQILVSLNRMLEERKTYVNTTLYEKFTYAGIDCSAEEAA
Protocol: Other kinases, single-concentration inhibition (Table 3)
Format: biochemical
Test Context: 1 μM
Observed Property: % inhibition Tie2(R849W)(h) (%)
A number alone suffices; assume %.

[[record]]
compound = "NC(=O)[C@H]1[C@H]2C[C@H]3[C@H]1Nc1nc(ncc1F)Nc1cccc(c1)CSS[C@@H]3C2"
observed_property = "% inhibition Tie2(R849W)(h)"
value_reported = 41


Problem: Specify measured % inhibition Tie2(R849W)(h) for CC[C@@H]1C[C@@H]2/C=C\COc3cccc(c3)Nc3ncc(F)c(n3)N[C@H]2[C@H]1C(N)=O (single isomer, unassigned) .
Solution: 91

Problem: Specify measured % inhibition Tie2(R849W)(h) for `CN1CCN(c2ccc3cc2NC(=O)CS[C@@H]2C[C@@H]4C[C@H]2[C@@H](Nc2nc(ncc2F)N3)[C@H]4C(N)=O)CC1` .
Solution: 28

----------
System Tested: FGFR4(h) (Homo sapiens, UniProt P22455)
Construct: purchased Caliper Life Sciences
Sequence (P22455 22-802): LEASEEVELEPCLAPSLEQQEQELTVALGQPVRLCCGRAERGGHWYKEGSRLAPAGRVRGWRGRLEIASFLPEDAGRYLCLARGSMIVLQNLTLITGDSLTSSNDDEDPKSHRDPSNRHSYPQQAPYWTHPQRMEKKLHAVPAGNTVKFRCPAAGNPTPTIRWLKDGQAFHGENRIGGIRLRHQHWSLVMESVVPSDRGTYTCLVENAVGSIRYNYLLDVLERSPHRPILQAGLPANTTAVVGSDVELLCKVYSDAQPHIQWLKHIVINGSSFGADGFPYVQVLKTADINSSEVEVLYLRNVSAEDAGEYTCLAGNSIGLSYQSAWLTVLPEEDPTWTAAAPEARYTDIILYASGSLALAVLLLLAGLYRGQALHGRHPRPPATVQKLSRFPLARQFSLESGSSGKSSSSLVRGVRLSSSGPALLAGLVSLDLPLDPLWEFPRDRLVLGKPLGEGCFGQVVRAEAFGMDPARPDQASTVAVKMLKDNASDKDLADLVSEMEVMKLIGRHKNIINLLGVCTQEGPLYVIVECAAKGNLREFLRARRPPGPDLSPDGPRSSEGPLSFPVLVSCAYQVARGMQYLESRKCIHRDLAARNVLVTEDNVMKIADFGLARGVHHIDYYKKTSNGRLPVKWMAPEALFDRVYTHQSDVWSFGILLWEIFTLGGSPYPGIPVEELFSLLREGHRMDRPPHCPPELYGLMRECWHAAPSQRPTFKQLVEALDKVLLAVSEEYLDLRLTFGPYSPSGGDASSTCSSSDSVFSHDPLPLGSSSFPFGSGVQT
Protocol: Other kinases, single-concentration inhibition (Table 3)
Assay type: biochemical
Test Context: 1 μM
Observed Property: % inhibition FGFR4(h) (%)
A number alone suffices; assume %.

Observe how each entry below is paired with its result.
[[record]]
molecule = "NC(=O)[C@H]1[C@H]2C[C@H]3[C@H]1Nc1nc(ncc1F)Nc1cccc(c1)OCCS[C@@H]3C2"
unit_annotation = "%"
value_reported = 102

[[record]]
molecule = "NC(=O)[C@H]1[C@H]2C[C@H]3[C@H]1Nc1nc(ncc1F)Nc1cccc(c1)C(=O)CS[C@@H]3C2"
unit_annotation = "%"
value_reported = 100

[[record]]
molecule = "N#Cc1ccc2cc1NC(=O)CS[C@@H]1C[C@@H]3C[C@H]1[C@@H](Nc1nc(ncc1F)N2)[C@H]3C(N)=O"
unit_annotation = "%"
value_reported = 53

[[record]]
molecule = "CN1CCN(c2ccc3cc2OCCS[C@@H]2C[C@@H]4C[C@H]2[C@@H](Nc2nc(ncc2F)N3)[C@H]4C(N)=O)CC1"
unit_annotation = "%"
value_reported = 87

[[record]]
molecule = "NC(=O)[C@H]1[C@H]2C[C@H]3[C@H]1Nc1nc(ncc1F)Nc1cccc(c1)NC(=O)CS[C@@H]3C2"
unit_annotation = "%"
value_reported = 96


Problem: Specify measured % inhibition FGFR4(h) for CC[C@@H]1C[C@@H]2/C=C\COc3cccc(c3)Nc3ncc(F)c(n3)N[C@H]2[C@H]1C(N)=O (single isomer, unassigned) .
Solution: 96

Problem: Specify measured % inhibition FGFR4(h) for `CN1CCN(c2ccc3cc2NC(=O)CS[C@@H]2C[C@@H]4C[C@H]2[C@@H](Nc2nc(ncc2F)N3)[C@H]4C(N)=O)CC1` .
Solution: 50

----------
System Tested: ZAP-70(h) (Homo sapiens, UniProt P43403)
Construct: purchased Caliper Life Sciences
Sequence (P43403 whole entry): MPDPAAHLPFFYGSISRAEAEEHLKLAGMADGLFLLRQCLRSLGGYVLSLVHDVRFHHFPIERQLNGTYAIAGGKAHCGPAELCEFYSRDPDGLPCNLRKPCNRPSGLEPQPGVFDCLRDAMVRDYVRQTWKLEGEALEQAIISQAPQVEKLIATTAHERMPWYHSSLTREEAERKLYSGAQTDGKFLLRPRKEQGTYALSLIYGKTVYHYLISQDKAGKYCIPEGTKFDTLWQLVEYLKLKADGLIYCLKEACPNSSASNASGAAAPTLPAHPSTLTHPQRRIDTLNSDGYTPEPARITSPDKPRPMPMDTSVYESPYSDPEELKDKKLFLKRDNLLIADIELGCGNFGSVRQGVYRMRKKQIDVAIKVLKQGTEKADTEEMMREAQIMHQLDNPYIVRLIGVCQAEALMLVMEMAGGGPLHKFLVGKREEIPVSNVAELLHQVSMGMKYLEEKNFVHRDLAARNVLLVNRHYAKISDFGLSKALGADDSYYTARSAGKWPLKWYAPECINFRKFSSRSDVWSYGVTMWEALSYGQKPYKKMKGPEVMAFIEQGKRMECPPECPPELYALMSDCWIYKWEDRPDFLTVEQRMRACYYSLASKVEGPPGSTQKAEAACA
Protocol: Other kinases, single-concentration inhibition (Table 3)
Assay type: biochemical
Test Context: 1 μM
Procedure: The Aurora and other kinase assays described here were performed on two Caliper Life Sciences systems, the LC3000 and the Desktop Profiler. These provide data on enzyme activity via measurement of the relative amounts of phosphorylated or unphosphorylated fluorescently labelled substrate peptide at the end of an enzymatic reaction. […] Plates were read in a manner identical to that of the LC3000, and the ratio between substrate and product peaks provided the activity of the enzyme in that well. […]
Measured % inhibition ZAP-70(h) by item
Note: state the figure and append the unit.

Observe how each entry below is paired with its result.
[[record]]
compound = "CC[C@@H]1C[C@@H]2CCCOc3cccc(c3)Nc3ncc(F)c(n3)N[C@H]2[C@H]1C(N)=O (single isomer, unassigned)"
system_tested = "ZAP-70(h) (Homo sapiens, UniProt P43403)"
observed_property = "% inhibition ZAP-70(h)"
value_reported = "122%"

[[record]]
compound = "NC(=O)[C@H]1[C@H]2C[C@H]3[C@H]1Nc1nc(ncc1F)Nc1cccc(c1)OCCS[C@@H]3C2"
system_tested = "ZAP-70(h) (Homo sapiens, UniProt P43403)"
observed_property = "% inhibition ZAP-70(h)"
value_reported = "122%"

[[record]]
compound = "NC(=O)[C@H]1[C@H]2C[C@H]3[C@H]1Nc1nc(ncc1F)Nc1cccc(c1)C(=O)CS[C@@H]3C2"
system_tested = "ZAP-70(h) (Homo sapiens, UniProt P43403)"
observed_property = "% inhibition ZAP-70(h)"
value_reported = "124%"


Problem: Specify measured % inhibition ZAP-70(h) for CC[C@@H]1C[C@@H]2/C=C\COc3cccc(c3)Nc3ncc(F)c(n3)N[C@H]2[C@H]1C(N)=O (single isomer, unassigned) .
Solution: 125%

Problem: Specify measured % inhibition ZAP-70(h) for `CN1CCN(c2ccc3cc2NC(=O)CS[C@@H]2C[C@@H]4C[C@H]2[C@@H](Nc2nc(ncc2F)N3)[C@H]4C(N)=O)CC1` .
Solution: 112%

Problem: Specify measured % inhibition ZAP-70(h) for `N#Cc1ccc2cc1NC(=O)CS[C@@H]1C[C@@H]3C[C@H]1[C@@H](Nc1nc(ncc1F)N2)[C@H]3C(N)=O` .
Solution: 112%
